tested on: human Factor 7 mRNA; test: Dose-dependent antisense inhibition of human Factor 7 in HepB3 cells, transfection with lipofectin; type: cell-based; conditions: 12.5 nM, lipofectin, HepB3 cells, 16 hours
In the oligonucleotide strings, read from the 5' end, every base follows the letter of its sugar. An asterisk marks phosphorothioate; unmarked linkages are phosphodiester. Other units and linkages are bracketed, terminal groups are in braces. A string of capitals states the bases alone. e = 2'-O-(2-methoxyethyl) (MOE); [5mC] = 5-methylcytosine; d = 2'-deoxy (DNA)
Use criterion met when the recorded percent inhibition of Factor 7 mRNA, relative to untreated control cells is no lower than 50%; use criterion not met when it is lower.

Answered examples (2):
substance	assigned-label
422296 (antisense e[5mC]*e[5mC]*dG*dA*dG*dT*dT*d[5mC]*dT*dG*d[5mC]*dA*dG*dG*dA*eG*e[5mC]*eG*eG*e[5mC]) [compound 422296]	criterion not met
422252 (antisense e[5mC]*eG*d[5mC]*d[5mC]*dG*dG*d[5mC]*dT*d[5mC]*dT*dG*d[5mC]*dT*d[5mC]*dA*eT*e[5mC]*e[5mC]*e[5mC]*e[5mC]) [compound 422252]	criterion not met

Attention now shifts to the item below.
Data request: Exam item: decide whether the reported percent inhibition of Factor 7 mRNA, relative to untreated control cells for 422229 (antisense eA*eT*dG*d[5mC]*dA*dT*dG*dG*dT*dG*dA*dT*dG*d[5mC]*dT*eT*e[5mC]*eT*eG*eA) [compound 422229] is at least 50%.
Data returned: criterion met

###

tested on: human Factor 7 mRNA; assay: Antisense inhibition of human Factor 7 mRNA in HepB3 cells, lipofectin, 50 nM, real-time RT-PCR; type: cell-based; settings: Example 1; HepB3 cells, lipofectin, 50 nM, ~24 h, relative to untreated control cells
In the oligonucleotide strings, read from the 5' end, every base follows the letter of its sugar. An asterisk marks phosphorothioate; unmarked linkages are phosphodiester. Other units and linkages are bracketed, terminal groups are in braces. A string of capitals states the bases alone. e = 2'-O-(2-methoxyethyl) (MOE); [5mC] = 5-methylcytosine; d = 2'-deoxy (DNA)
Reported % Inhibition (human Factor 7 mRNA) is given for each of the following substances.
API: value field is a number in %; no unit string.

substance	subject-of-test	% Inhibition (human Factor 7 mRNA) (%)
407653 (antisense eA*eA*eT*eA*eT*d[5mC]*dA*dT*dT*dG*dA*d[5mC]*dA*dA*dG*eG*eG*e[5mC]*eT*eG) [compound 407653]	human Factor 7 mRNA	21
407931 (antisense e[5mC]*eT*eT*e[5mC]*eA*dG*dA*dG*dG*dA*d[5mC]*dA*dG*d[5mC]*dA*e[5mC]*eA*e[5mC]*eA*eT) [compound 407931]	human Factor 7 mRNA	56
407635 (antisense eT*eG*eG*e[5mC]*e[5mC]*d[5mC]*d[5mC]*dA*dG*d[5mC]*dT*dG*dA*d[5mC]*dG*eA*eT*eG*e[5mC]*e[5mC]) [compound 407635]	human Factor 7 mRNA	64
407924 (antisense eG*eA*eT*eT*eT*dG*dG*dT*dG*d[5mC]*d[5mC]*dA*dG*dG*dA*e[5mC]*eA*eG*eT*eT) [compound 407924]	human Factor 7 mRNA	68

Shifting focus to the substance that follows.
// field: % Inhibition (human Factor 7 mRNA); key: 407943 (antisense eG*e[5mC]*eA*eG*eG*d[5mC]*dA*d[5mC]*d[5mC]*dA*d[5mC]*dA*dG*dG*dT*eG*eT*eG*e[5mC]*eG) [compound 407943] ; value = 34

Numbers sourced from patent US20120214862A1.
